# condition_label: in DMSO, 308.15 K
endpoint_label: solubility (mole fraction)
Quick one: just the number, no unit, thanks!

Incoming: Could you tell me which solubility (mole fraction) is on file for CN1COCN(Cc2cnc(Cl)s2)C1=N[N+](=O)[O-] ?
Outgoing: 0.117

Provenance of the data: BigSolDB 2.1
